Reference for the values: PubChem BioAssay AID850

- Tested on: Saccharomyces cerevisiae growth inhibition, permissive control
- Test: yeast lifespan-shortening chemical project counter-assay, dose-response inhibition of growth under permissive conditions (AID 850);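 note: growth read as optical density after one day of incubation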
The source made the active and inactive calls. The rule behind the calls is not given here.
Respond using exactly one of the listed classes: active, inactive

Incoming: Please indicate how the test categorized `Nc1nsc2ccccc12` .
Outgoing: active

Incoming: Please indicate how the test categorized `Cc1ccc(C(=O)Oc2ccc(Cl)c3cccnc23)cc1[N+](=O)[O-]` .
Outgoing: active

Incoming: Please indicate how the test categorized `c1ccc2c(c1)oc1c(N3CCOCC3)ncnc12` .
Outgoing: inactive

Incoming: Please indicate how the test categorized `Oc1cccc(/C=N/NC(=S)Nc2cccnc2)c1O` .
Outgoing: inactive

Incoming: Please indicate how the test categorized `Oc1c(CN2CCCCC2)cc(Br)c2cccnc12` .
Outgoing: active

Incoming: Please indicate how the test categorized CCn1ncc(C2=NOC(C(=O)Nc3c(C)n(C)n(-c4ccccc4)c3=O)C2)c1C (stereo not given) .
Outgoing: inactive

Incoming: Please indicate how the test categorized `Cc1nnc(NC(=O)CSc2nnc(Cc3cccn3C)n2-c2ccccc2)s1` .
Outgoing: inactive

Incoming: Please indicate how the test categorized `N#Cc1ccccc1NC(=O)c1ccc2c(Cl)c3c(nc2c1)CCCC3` .
Outgoing: inactive

Incoming: Please indicate how the test categorized `COc1ccc(-c2[nH]ncc2-c2ccc(Cl)cc2)c(O)c1` .
Outgoing: inactive

Incoming: Please indicate how the test categorized `COc1ccc2cc(C(=O)O)ccc2c1` .
Outgoing: active

Incoming: Please indicate how the test categorized `Cc1cc(-c2ccco2)c(C#N)c2nc3ccccc3n12` .
Outgoing: active

Incoming: Please indicate how the test categorized `O=C(CSC1=NS(=O)(=O)c2ccccc21)Nc1ccccc1` .
Outgoing: inactive

Incoming: Please indicate how the test categorized `COC(=O)c1ccc(CSc2ccc3nnc(-c4cccc(F)c4)n3n2)o1` .
Outgoing: inactive

Incoming: Please indicate how the test categorized `O=C(CSc1cccc[n+]1[O-])c1cc2ccccc2o1` .
Outgoing: active

Incoming: Please indicate how the test categorized `C(=N\c1ncnc2sccc12)/NOCc1ccccc1` .
Outgoing: active

Incoming: Please indicate how the test categorized CC1Cc2ccccc2N1C(=O)CSC1=NCCS1 (stereo not given) .
Outgoing: inactive

Incoming: Please indicate how the test categorized `O=c1oc2ccccc2cc1-c1cn2cccnc2n1` .
Outgoing: inactive

Incoming: Please indicate how the test categorized `C=CCNC(=S)N/N=C(\C)c1ccccn1` .
Outgoing: active

Incoming: Please indicate how the test categorized `Cc1ccc(OC(=S)Nc2ccc(O)cc2)cc1` .
Outgoing: active

Incoming: Please indicate how the test categorized CCc1ccc2c(c1)C1(NN=C(c3ccc(C)cc3)S1)C(=O)N2 (stereo not given) .
Outgoing: active

Incoming: Please indicate how the test categorized CC(C)c1ccc2c(c1)C1(NN=C(c3ccccc3)S1)C(=O)N2 (stereo not given) .
Outgoing: active

Incoming: Please indicate how the test categorized `Cc1cc(C(=O)COC(=O)c2ccc[nH]c2=O)c(C)n1-c1ccc(F)cc1` .
Outgoing: inactive

Incoming: Please indicate how the test categorized `O=C(/C(=N/N=C/c1ccc(O)c(O)c1O)c1ccccc1)c1ccccc1` .
Outgoing: inactive

Incoming: Please indicate how the test categorized `CCOC(=O)c1ccc(-n2[nH]c(-c3ccccc3)cc2=O)cc1` .
Outgoing: active

Incoming: Please indicate how the test categorized `CC(C)c1ccc(NC(=S)NCCc2c[nH]c3ccccc23)cc1` .
Outgoing: inactive
